Cited source for all entries: patent US20060122234A1

Tested on: histone deacetylase activity (total lysates from K562 cells or HeLa nuclear extracts)
Experiment: Deacetylase assay (primary assay), fluorescent acetylated-lysine substrate
Format: biochemical, human
Details: 30 minutes, 116 μM fluorescent substrate, 1% DMSO; read-out: IC50 (histone deacetylase enzymatic activity)
pIC50: −log10 of the molar value.
Measurement type: pIC50

>>> measured("O=C(NO)c1ccc(-c2ccc(NCc3cc4ccccc4o3)cn2)s1 [Example 1 (ba)]")
7.21
>>> measured("NS(=O)(=O)c1cccc(NC(=O)Cn2ccc(-c3ccc(C(=O)NO)s3)n2)c1 [Example 1 (dc)]")
6.62
>>> measured("O=C(NO)c1ccc(-c2ccccc2)s1 [Example 1 (g)]")
6.05

1. O=C(NO)c1ccc(-c2nccc(OCc3ccccc3)n2)s1 [Example 1 (z)]
2. O=C(NO)c1ccc(-c2ccn(Cc3ccccc3)n2)s1 [Example 1 (l)]
Prompt: Thinking about recorded pIC50 values, which is higher, 1 or 2 ? Refer to your chosen item by its label in the answer.
Completion: 1
(1: 7.12, 2: 6.82)

---

Test system: MDA-MB-231 human mammary gland adenocarcinoma cells
Assay: Cell proliferation assay (secondary assay), CyQUANT, MDA-MB-231
Type: cell-based
Settings: MDA-MB-231, 72h exposure, 0.1% DMSO
Measurement type: IC50 (µM)

>>> measured("O=C(NO)c1ccc(-c2ccccc2)s1")
44

I. Cn1nc(C(F)(F)F)cc1-c1ccc(C(=O)NO)s1
II. O=C(NO)c1ccc(-c2ccn(Cc3ccccc3)n2)s1
III. O=C(NO)c1ccc(-c2ccc(NCc3cc4ccccc4o3)cn2)s1
Prompt: // smallest IC50 at index 0, largest at the end Reply: labels, ordered per the request.
Completion: III, II, I
